# protocol_summary: growth suppression of yeast trafficking mutant, preliminary HTS, modulators of trafficking downstream of Golgi apparatus project, 1536-format plate, OD 615 nm (AID 637)
# settings: yeast transport mutant growth, absorbance 615 nm, 18 h; stronger effect = higher value
Peptide text beside a SMILES is read from it. * marks the point of attachment. Boc = CC(C)(C)OC(=O)*
quantity: inhibition (%)

molecule	quantity	observed_value
Cc1cc(C)n(C(=O)CCCCCC(=O)n2nc(C)cc2C)n1	inhibition	-2.86
S=c1[nH]nc(COc2ccccc2)n1C1CCCCC1	inhibition	6.35
NC(=O)C1(N2CCCCC2)CCN(C(=O)Nc2ccccc2C(F)(F)F)CC1	inhibition	5.08
CCCC1(C(=O)OC)NC(c2cc(OC)c(OC)c(OC)c2)C2C(=O)N(CC)C(=O)C21 (stereo unspecified)	inhibition	21.4
c1ccc(-c2oc3ncnc(NCCN4CCOCC4)c3c2-c2ccccc2)cc1	inhibition	-4.1
O=C(Cc1cccs1)NCc1ccc(F)cc1	inhibition	3.33
Cc1ccc(NC(=O)CSc2nnc(-c3ccc(S(=O)(=O)N4CCOCC4)cc3)n2C)cc1	inhibition	-1.64
CCN(CC)CCCN1C(=O)C(O)=C(C(C)=O)C1c1cccc(OC)c1 (stereo unspecified)	inhibition	-2.73
CCCCOC(=O)C1=C(C)Nc2ncnn2C1c1cccc(OC)c1OC (stereo unspecified)	inhibition	-3.33
CC(C)CC(NC(=O)OC(C)(C)C)C(=O)NC(C(=O)N1CCCC1C(N)=O)C(C)C (stereo not drawn) (Boc-Leu-Val-Pro-NH2; configuration not given here)	inhibition	-4.1
COc1cc2nc(N3CCN(C(=O)C4COc5ccccc5O4)CC3)nc(N)c2cc1OC (stereo unspecified)	inhibition	6.83

====

# protocol_summary: reversal of MRP1-mediated doxorubicin resistance, pilot screen, H69AR cells, doxorubicin co-treatment (AID 601)
# settings: H69AR cells + 2 uM doxorubicin, CellTiter-Glo, 72 h; measured here: viability with 2 uM doxorubicin; at 10 µM; stronger effect = lower value
Exam item: assign Fulfilled to entries whose viability is below 80% and Not fulfilled to entries at or above 80%. Note that a value of exactly 80% receives Not fulfilled.

> print(dat)
                                    compound    label.class
 1          C=C(C)Cn1c(CCNC(=O)CC)nc2ccccc21  Not fulfilled
 2  Cc1c(C(=O)N2CCN(c3ccccc3)CC2)sc2ncnc(N3CCN(c4ccccc4)CC3)c12  Not fulfilled
 3   CCOC(=O)c1c(N)c(C#N)nn1-c1ccccc1C(=O)OC  Not fulfilled
 4  Cc1ccc(-n2nc3cc(Cl)c(NC(=O)c4ccco4)cc3n2)cc1      Fulfilled
 5  COc1cccc(CN(C(=O)c2cc3ccccc3oc2=O)C2CC2)c1  Not fulfilled
 6          c1ccc2c(c1)nc(-c1ccncc1)n1nnnc21  Not fulfilled
 7    Cn1cnc2c1c(=O)n(Cc1cccc(Br)c1)c(=O)n2C  Not fulfilled
 8  COc1ccccc1N(C)S(=O)(=O)c1ccc(C(=O)NC2=NCCS2)cc1  Not fulfilled
 9  COc1ccccc1CC(NC(C)=O)C(=O)NC1CCN(c2nnnn2-c2ccccc2)CC1 (centres undefined)  Not fulfilled
10             Nc1nc(SCc2ccc(Cl)cc2Cl)n[nH]1  Not fulfilled
11  COCCNC(=O)c1c(N)n(/N=C/c2cccs2)c2nc3ccccc3nc12      Fulfilled
12  Cc1oc(-c2ccc(Cl)cc2)cc1-c1nn2c(-c3ccoc3C)nnc2s1  Not fulfilled
13         N#CCc1ccc(NC(=O)Nc2cccc(Cl)c2)cc1  Not fulfilled
14         O=C(O)CCc1ccc(-c2ccccc2)n1CC(=O)O  Not fulfilled
15                  N=c1nc(N2CCCCC2)cc(N)n1O  Not fulfilled
16  CC(C)c1nc(NCC2CCCO2)c(C#N)c2c1COC(C)(C)C2 (centres undefined)  Not fulfilled
17               CCCN(CC1CC1)C(=O)Nc1ccccc1C  Not fulfilled
18  CCOc1cc(S(=O)(=O)NCc2ccc3c(c2)OCO3)ccc1F  Not fulfilled
19  O=S(=O)(c1ccc(S(=O)(=O)N(Cc2ccco2)Cc2ccccc2Cl)cc1)N1CCCC1      Fulfilled
20     CN1CCN(C2=Nc3ccccc3Oc3ccc(Cl)cc32)CC1      Fulfilled
21  CN1[C@@H]2CC(OC(=O)[C@H](CO)c3ccccc3)C[C@H]1[C@@H]1O[C@@H]12 (some centres undefined)  Not fulfilled
22          Cc1ccc(F)cc1NC(=O)c1cccc2nccnc12  Not fulfilled
23              CC1(C)CC(=O)c2c(O)cc(O)cc2O1  Not fulfilled
24  CCOc1ccc(-c2c(C#N)c(N)nc3c2c(=O)n(C)c(=O)n3C)cc1OC  Not fulfilled
25  CCOC(=O)c1sc(NC(=O)CSc2n[nH]c(-c3ccccc3)n2)c(C#N)c1C      Fulfilled
26  CC(C)(C)c1ccc(-c2nnc(SCCC#N)n2C2CCCC2)cc1      Fulfilled
27  CCN1CCN(C(=O)c2cc3c(=O)n(C)c4ccccc4c3n2C)CC1  Not fulfilled
28  N#C/C(=C(/O)COC(=O)CCC1CCCCC1)c1nc2ccccc2[nH]1      Fulfilled
29                  C=CCN(CC=C)C(=O)c1ccncc1  Not fulfilled
30     CCCC(=O)Nc1cnc(NC(=O)c2cccc(F)c2)cc1C  Not fulfilled
31                    Cc1cc(C)c2ccc(N)nc2c1O      Fulfilled
32  CC(C)(C)c1nnc(NC(=O)C2CCN(c3ncccn3)CC2)s1  Not fulfilled

====

Each record here notes measured inhibition.
# protocol_summary: growth suppression of yeast trafficking mutant, preliminary HTS, modulators of trafficking downstream of Golgi apparatus project, 1536-format plate, OD 615 nm (AID 637)
# settings: yeast transport mutant growth, absorbance 615 nm, 18 h; stronger effect = higher value
quantity: inhibition (%)

> print(dat)
                                   compound    quantity  unit.of.measure  observed.value
1   COc1ccc(CNc2nc3nc(C)c(Cl)c(C)n3n2)cc1OC  inhibition                %           -6.73
2  CC(C)(C)NCC(O)COc1cccc2c1C[C@H](O)[C@H](O)C2 (some centres undefined)  inhibition                %            1.83
3  OC(CN1CCN(c2ccccc2)CC1)c1ccc2c(c1)CCN2 (centres undefined)  inhibition                %            3.33
4  Cc1cccc(N2CCN(C(=O)C3CCCN(S(=O)(=O)c4cnc[nH]4)C3)CC2C)c1 (centres undefined)  inhibition                %           -0.98
5  Cc1cc(N2CCN(C3CCCC3)CC2)n2c(nc3ccccc32)c1C#N  inhibition                %            2.42
6   CCOC(=O)c1c(N)c(C#N)nn1-c1ccccc1C(=O)OC  inhibition                %            0.73
7  COc1ccc(CCN2C(=O)CC(N3CCN(S(=O)(=O)c4ccccc4)CC3)C2=O)cc1 (centres undefined)  inhibition                %           -0.36
8  CC(=O)c1c(C)[nH]c(C(=O)Nc2c(C)n(C)n(-c3ccccc3)c2=O)c1C  inhibition                %               0
9   COc1cccc(-c2cc(C(F)(F)F)n3nc(N)nc3n2)c1  inhibition                %            10.3

====

List of viability values.
# protocol_summary: growth inhibitors of H69AR lung tumor, primary screen, human, duplicate replicates (AID 580);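 note: 100% = mean luminescence of untreated wells and 0% = no signal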
# settings: H69AR lung tumor cells viability, ATP luminescence, 72 h; at 10 µM; stronger effect = lower value
quantity: viability (%)

> print(dat)
                                    compound   quantity  unit.of.measure  observed.value
 1  CCCCCC1NC(=O)NC1CCCCCC(=O)O (centres undefined)  viability                %             104
 2  COc1cccc(NC(=O)N(CCCN2CCOCC2)C(C)c2cc3cccc(OC)c3o2)c1 (centres undefined)  viability                %            93.2
 3              O=C(NCc1ccco1)c1noc2c1CCCCC2  viability                %            78.4
 4      COc1ccc(COC(=O)c2n[nH]c3ccccc23)cc1F  viability                %             100
 5  Cc1nc(NC(=O)C23CCC(C)(C(=O)O2)C3(C)C)sc1C (centres undefined)  viability                %            99.2
 6     O=C(CC(CC(=O)c1ccccc1)C(=O)O)c1ccccc1  viability                %             102
 7  Cc1cc(C)n(-c2nc3c(c(=O)[nH]c(=O)n3C)n2Cc2ccc(F)cc2)n1  viability                %            96.5
 8  CC(C)(C)C1CCc2c(sc3c2C(=O)NC(c2ccco2)N3)C1 (centres undefined)  viability                %            88.5
 9          O=C(NCc1ccccc1)c1cc(-c2ccco2)on1  viability                %              94
10           CCCNC(=O)NS(=O)(=O)c1ccc(Cl)cc1  viability                %            97.5
11  Cc1sc2nc(SCC(=O)NCc3ccco3)n(CCc3ccccc3)c(=O)c2c1C  viability                %              40
12  CC(C)C(c1nnnn1C1CCCC1)N1CCN(C(=O)c2ccco2)CC1 (centres undefined)  viability                %            88.8
13             CCSc1nc(-c2ccc(OC)cc2)ccc1C#N  viability                %            66.5
14  Cn1c(=O)c(=O)n(C)c2cc(S(=O)(=O)N3CCN(c4cccc(C(F)(F)F)c4)CC3)ccc21  viability                %            93.3
